Origin of measurements: PubChem BioAssay

- methodSummary: E. coli acrAB mutant growth effects, primary screen, E. coli filamentation inducers, strain DRC39, OD650, 48 h (AID 1179);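 further: screen aims at cell division blockers that make cells filament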
- assaySetup: E. coli DRC39 delta-acrAB growth, higher = more signal, called active from +8 up or from −8 down
Mark False for z-score values under 0.8, and True for everything at or above.

Asked: API: above_or_equal(metric=z-score, cutoff=0.8) for item O=c1n(-c2ccccc2)c(=O)n2n1CC(COc1ccccc1)=C1[C@@H](CCc3ccccc3)OB(O)C[C@@H]12
Given back: True

Asked: Determine whether this compound has z-score no lower than 0.8: CC(C)[C@@H](C(=O)O)n1cc(-c2ccccn2)nn1
Given back: True

Asked: Kindly determine if z-score recorded for CN(C)CCCC[C@@H]1NC(=O)[C@@H]2C[C@H](C(=O)NCCCCCNC(=O)CS)[C@H](c3cccc(OCCO)c3)N2C1=O is above or exactly 0.8.
Given back: False

Asked: // inclusive: z-score at least 0.8? input: CCOC(=O)C[C@H]1[C@H](OC(=O)c2ccc(-c3ccccc3)cc2)[C@@H](NC(=O)C2CCCCC2)c2cc(OCCCO)ccc2N1C(=O)c1ccc2ccccc2n1
Given back: True

Asked: Reported z-score at or above 0.8? COCCCNC(=O)[C@@]1(Cc2ccccc2)N=C(c2ccc(OCCCO)cc2)O[C@H]1c1ccccc1N=[N+]=[N-]
Given back: False

Asked: Does the compound O=C(NCc1ccccc1)[C@@H]1c2ccccc2C(=O)N(Cc2ccccc2Cl)[C@H]1c1ccc(CO)cc1 have recorded z-score that is 0.8 or more?
Given back: False

Asked: Check the entry O=C1O[C@H](c2ccccc2)[C@H](c2ccccc2)N2[C@H]1[C@@H](C(=O)NC[C@H](O)c1ccccc1)[C@]1(C(=O)Nc3ccc(C#CC4(O)CCCCCC4)cc31)[C@H]2c1ccc(O)cc1 : does z-score equal or exceed 0.8?
Given back: True

Asked: Quick check: does NC(=O)NCC#Cc1ccc2c(c1)[C@]1(C(=O)N2)[C@H](c2ccc(OCCO)cc2)N2[C@H](c3ccccc3)[C@H](c3ccccc3)OC(=O)[C@H]2[C@@H]1C(=O)Nc1nc2ccccc2s1 have z-score greater than or equal to 0.8?
Given back: False

Asked: In plain terms: is recorded z-score at least 0.8 for C=CC[C@@]1(C(=O)NCc2ccccc2)N=C(c2ccc(OCCCO)cc2)O[C@@H]1c1ccccc1 ?
Given back: False

Asked: Quick check, z-score >= 0.8? COc1ccc([Si](C)(C)[C@@H]2[C@@H](CCn3cc([C@H](O)c4ccccc4)nn3)O[C@]3(C(=O)N(C)c4c(Br)cc(C)cc43)[C@H]2C)cc1
Given back: True

Asked: Confirm if z-score reported for the compound CN1C=C(C(=O)OCCS(C)(=O)=O)C(C(=O)OCCS(C)(=O)=O)=CC(CCCO)=CC1c1cccs1 (stereo not given) is 0.8 or above.
Given back: False

Asked: Reported z-score at or above 0.8? CCCCC(=C=CC[C@H](O)c1cccc(OCCO)c1)CCO
Given back: False

Asked: # check: z-score of C=CC[C@]1(C(=O)N(C)C)N=C(c2ccc(OCCCO)cc2)O[C@H]1c1ccccc1CN=[N+]=[N-] is greater than or equal to 0.8
Given back: False
